tested on: LOX IMVI melanoma; experiment: NCI tumour cell line growth inhibition, 48 h; in the data active = GI50 below about 0.43 µM; inactive = the rest
Possible outcomes: t for active, f for inactive

[[record]]
molecule = "COc1cccc(-n2nc(C)c3c(N/N=C(\\C)c4ccncc4)ncnc32)c1"
system_name = "LOX IMVI melanoma"
label_value = "f"

[[record]]
molecule = "CN1CCN(CCOc2ccc(-c3cnc4c(-c5ccc(C(F)(F)F)cc5)cnn4c3)cc2)CC1"
system_name = "LOX IMVI melanoma"
label_value = "f"

[[record]]
molecule = "O=C1c2cccc(NCCN=Cc3cc([N+](=O)[O-])ccc3O)c2C(=O)c2c(NCCN=Cc3cc([N+](=O)[O-])ccc3O)cccc21"
system_name = "LOX IMVI melanoma"
label_value = "f"

[[record]]
molecule = "NC(=O)c1ccccc1Nc1ccc2nnc(-c3ccncc3)n2n1"
system_name = "LOX IMVI melanoma"
label_value = "f"

[[record]]
molecule = "COc1cc2c(cc1O)CC[C@@H]1[C@@H]2CC[C@]2(C)[C@@H](OCCN(C)C)CC[C@@H]12"
system_name = "LOX IMVI melanoma"
label_value = "t"

[[record]]
molecule = "COC1=CC(c2ccc[nH]2)=N/C1=C\\c1[nH]c(C)c(C(=O)CCCCC(=O)NC(C)(C)C)c1C"
system_name = "LOX IMVI melanoma"
label_value = "f"

[[record]]
molecule = "O=c1ccn(C2CC(O)C(CO)O2)c(=O)[nH]1 (stereo unspecified)"
system_name = "LOX IMVI melanoma"
label_value = "f"

[[record]]
molecule = "C1COCCN1.C1COCCN1.NC1CCCCC1N.[Cl-].[Pt+2] (stereo unspecified)"
system_name = "LOX IMVI melanoma"
label_value = "f"

[[record]]
molecule = "O=c1cc(-c2ccccc2F)[nH]c2ccc(N3CCCC3)cc12"
system_name = "LOX IMVI melanoma"
label_value = "t"

[[record]]
molecule = "NC(=O)c1ccc(I)c(N=O)c1"
system_name = "LOX IMVI melanoma"
label_value = "f"

[[record]]
molecule = "Cc1ccc(C(CC(=O)c2ccccc2)C2C(=O)NC(=O)NC2=O)cc1 (stereo unspecified)"
system_name = "LOX IMVI melanoma"
label_value = "f"


---

tested on: KM12 colon; assay: NCI tumour cell line growth inhibition, 48 h
TGI: recorded values
measured_attribute: TGI

[[record]]
compound = "CN1CCN(c2ncc3c(n2)sc2c(=O)n(-c4ccccc4)cnc23)CC1"
system_name = "KM12 colon"
value_measured = "> 100 µM"

[[record]]
compound = "CC(C)CC(NC(=O)OC(C)(C)C)C(=O)Nc1ccc(Nc2nc(F)nc(-c3c4ccccc4c4n3CCS4)n2)cc1 (stereo not drawn)"
system_name = "KM12 colon"
value_measured = "51.1 µM"

[[record]]
compound = "CN(C)C(=S)/N=c1\\ssc(=S)n1Cc1ccccc1"
system_name = "KM12 colon"
value_measured = "> 100 µM"


---

tested on: NCI-H226 lung; assay: NCI tumour cell line growth inhibition, 48 h
GI50: recorded values
measured_attribute: GI50

[[record]]
given_smiles = "O=C(Nc1ccncc1)C(=O)c1cn(Cc2ccc(Cl)cc2)c2ccccc12"
measured_attribute = "GI50"
value_measured = "0.276 µM"

[[record]]
given_smiles = "O=C(Cn1c(=O)c(-c2ccccc2)nc2ccccc21)Nc1ccc(F)cc1"
measured_attribute = "GI50"
value_measured = "> 100 µM"

[[record]]
given_smiles = "COc1ccc(C(=O)/C=C/c2cccc([N+](=O)[O-])c2)c(OC)c1"
measured_attribute = "GI50"
value_measured = "1.65 µM"

[[record]]
given_smiles = "COc1cc(Nc2c(C#N)cnc3cc(OCCCN4CCN(C)CC4)c(OC)cc23)c(Cl)cc1Cl"
measured_attribute = "GI50"
value_measured = "12.1 µM"

[[record]]
given_smiles = "NC(=O)c1ccccc1Nc1ccc2nnc(-c3ccncc3)n2n1"
measured_attribute = "GI50"
value_measured = "15 µM"

[[record]]
given_smiles = "COc1cccc(-c2nn(-c3ccccc3)cc2-c2ccnc(NCCCNC(=O)Nc3ccc(Cl)c(Cl)c3)c2)c1"
measured_attribute = "GI50"
value_measured = "5.61 µM"

